Let's look at some compounds and their measured IC50.
System: T47D
protocol notes: cells
Parameters: species or system MDA-MB-231, MRC-5; MTT cell viability, growth inhibition versus DMSO control, n = 4
condition summary: Homo sapiens, 48 h
Where a name gives a salt, the structure may show the parent alone.
Dear colleague, please return just the value in µM, with no unit written.

[
  {
    "compound": "COc1cc2c(c(O)c1C/C=C(\\C)CCC=C(C)C)C(=O)N(CCc1ccccc1)C2",
    "readout label": "IC50",
    "obs value": 5.9
  }
]

### Prompt # return recorded IC50 for input COc1cccc2c1C(=O)c1c(O)c3c(c(O)c1C2=O)C[C@@](O)(C(=O)CO)C[C@@H]3O[C@H]1C[C@H](N)[C@H](O)[C@H](C)O1 [Doxorubicin·HCl, Doxorubicin hydrochloride]
### Response 0.69

----------
Let's look at some compounds and their measured CC50 at 48 h.
protocol notes: in vitro
Set-up: species or system T47D, MDA-MB-231; MTT cell viability, growth inhibition versus DMSO control, n = 4
condition summary: human, mrc-5 cells; read-out: MRC-5 IC50
Description: Cytotoxicity assays were evaluated against the following cell lines: T-47D ATCC, HTB-133 (hormone-dependent breast cancer), and MRC-5 ATCC, CCL171 (normal embryonic lung) from the American Type Culture Collection (ATCC, Manassas, VA) as well as MDA-MB-231 ((hormone-independent breast cancer) from M.D. Anderson Cancer Center, Houston, TX). […] The cutoff concentration is 50 μg mL^–1. Cell viability was determined using the MTT assay. […]
Counter-ions that a name gives are not always drawn.
Dear colleague, please return just the value in µM, with no unit written.

[
  {
    "compound": "COc1cc2c(c(O)c1C/C=C(\\C)CCC=C(C)C)C(=O)N(CCc1ccccc1)C2",
    "readout label": "CC50 at 48 h",
    "unit": "µM",
    "obs value": 79.6
  }
]

Note: attention shifts to another entry.
### Prompt # return recorded CC50 at 48 h for input COc1cccc2c1C(=O)c1c(O)c3c(c(O)c1C2=O)C[C@@](O)(C(=O)CO)C[C@@H]3O[C@H]1C[C@H](N)[C@H](O)[C@H](C)O1 [Doxorubicin·HCl, Doxorubicin hydrochloride]
### Response 2.75
